Overview of recorded Antibacterial activity of the compound of Formula I, ATCC25922 for various molecules
# Tested on: ATCC25922 strain (Escherichia coli)
# Protocol notes: Broth microdilution, antibacterial activity of the compound used alone
# Type: cell-based
Property: Antibacterial activity of the compound of Formula I, ATCC25922 (µg/mL)

{"Mol smiles": "NC(N)=Nc1nc(-c2ccc(C(F)(F)F)cc2)cs1", "Measured value": 256}
{"Mol smiles": "NC(N)=Nc1nc(-c2ccccc2[N+](=O)[O-])c[nH]1", "Measured value": 256}
{"Mol smiles": "Cc1ccc2cccc(-c3nc(N=C(N)N)oc3C)c2c1", "Measured value": 256}
